# PROTOCOL DESCRIPTION: qHTS of pediatric cancer cell lines to identify multiple opportunities for drug repurposing: Primary screen for NB-EBc1 cells (AID 1347095)
# STUDY CONDITIONS: NB-EBc1 neuroblastoma viability, CellTiter-Glo luminescence, 48 h; series mostly up to 46 µM
Records with an inconclusive call do not appear. Calls of active or inactive are those of the source. The call rests on the fitted dose curve; in most records, active means well fitted cell-killing curve with a large enough effect; inconclusive means small, poorly fitted or top-dose-only effect; inactive means no such curve, though single readings can be large or run the other way.
Outcomes: 1.0 for active, 0.0 for inactive

>  <MOLECULE>
COc1cc2c(cc1-c1c(C)noc1C)ncc1[nH]c(=O)n([C@H](C)c3ccccn3)c12

>  <CLASS>
1.0

$$$$
>  <MOLECULE>
COc1c(OCCCN2CCOCC2)ccc2c3n(c(=NC(=O)c4cnc(N)nc4)nc12)CCN3

>  <CLASS>
1.0

$$$$
>  <MOLECULE>
Cn1cc(-c2[nH]c3cc(NC(=O)[C@H](N)C4CCCCC4)cc4c3c2C=NNC4=O)cn1

>  <CLASS>
1.0

$$$$
>  <MOLECULE>
CN(C)CC(C)(C)CNc1nn2c(-c3ccccc3)nnc2cc1C1CCC1

>  <CLASS>
1.0

$$$$
>  <MOLECULE>
COC(=O)[C@]12CCC(C)(C)C[C@@H]1[C@@H]1C(=O)C=C3[C@@]4(C)C=C(C#N)C(=O)C(C)(C)[C@@H]4CC[C@@]3(C)[C@]1(C)CC2

>  <CLASS>
1.0

$$$$
>  <MOLECULE>
COc1cc(OC2CCN(C)CC2)ccc1Nc1ncc2c(n1)n(C1CCCC1)c(=O)n2C

>  <CLASS>
1.0

$$$$
>  <MOLECULE>
CCCCN1CCC(CNC(=O)c2c3n(c4ccccc24)CCCO3)CC1

>  <CLASS>
1.0

$$$$
>  <MOLECULE>
C[C@H]1C[C@@H]2[C@@H]([C@@H](O)C[C@@]3(C)[C@H]2CC[C@]3(O)C(=O)CO)[C@@]2(C)C=CC(=O)C=C12

>  <CLASS>
0.0

$$$$
>  <MOLECULE>
Cc1cc(Nc2cc(CN3CCOCC3)c3nc(C)c(Cc4ccc(Cl)cc4F)n3n2)n[nH]1

>  <CLASS>
1.0

$$$$
>  <MOLECULE>
Cc1[nH]c2ccccc2c1CCNCc1ccc(C=CC(=O)NO)cc1

>  <CLASS>
1.0

$$$$
>  <MOLECULE>
Cc1ccc(NC(=O)C2(c3ccc4c(c3)OC(F)(F)O4)CC2)nc1-c1cccc(C(=O)O)c1

>  <CLASS>
1.0

$$$$
>  <MOLECULE>
CN(c1ncccc1CNc1nc(Nc2ccc3c(c2)CC(=O)N3)ncc1C(F)(F)F)S(C)(=O)=O

>  <CLASS>
1.0

$$$$
>  <MOLECULE>
Clc1cccc(-c2nnnn2Cc2cccnc2)c1Cl

>  <CLASS>
0.0

$$$$
>  <MOLECULE>
COc1cc2ncnc(Nc3ccc(F)c(Cl)c3)c2cc1NC(=O)C=CCN1CCCCC1

>  <CLASS>
1.0

$$$$
>  <MOLECULE>
NC(=O)c1cccc2cn(-c3ccc([C@@H]4CCCNC4)cc3)nc12

>  <CLASS>
1.0

$$$$
>  <MOLECULE>
c1nc2nc(Nc3ccc(N4CCOCC4)cc3)nc(NC3CCCCC3)c2[nH]1

>  <CLASS>
1.0

$$$$
>  <MOLECULE>
CN1CCN(c2ccc3nc(-c4c(N)c5c(F)cccc5[nH]c4=O)[nH]c3c2)CC1

>  <CLASS>
1.0

$$$$
>  <MOLECULE>
Cc1[nH]nc2ccc(-c3cncc(OC[C@@H](N)Cc4ccccc4)c3)cc12

>  <CLASS>
1.0

$$$$
>  <MOLECULE>
CNC(=O)CN1CCC(Oc2cc3c(Nc4cccc(Cl)c4F)ncnc3cc2OC)CC1

>  <CLASS>
1.0

$$$$
>  <MOLECULE>
Cc1cc(CN2CCN(c3c(Br)cnc4nc(-c5ccc(N6CCN(C)CC6)cc5)[nH]c34)CC2)no1

>  <CLASS>
1.0

$$$$
>  <MOLECULE>
CC(C)c1ccc(Cn2ccc3c4c(N)nc(NC5CC5)nc4ccc32)cc1

>  <CLASS>
1.0

$$$$
>  <MOLECULE>
Cn1c(=O)n(-c2ccc(C(C)(C)C#N)cc2)c2c3cc(-c4cnc5ccccc5c4)ccc3ncc21

>  <CLASS>
1.0

$$$$
>  <MOLECULE>
O=C1CCC[C@@H]2[C@H]3CCC[N+]4([O-])CCC[C@@H](CN12)[C@@H]34 (some centres not stated)

>  <CLASS>
0.0

$$$$
>  <MOLECULE>
CC1(O)CC(c2nc(-c3ccc4ccc(-c5ccccc5)nc4c3)c3c(N)nccn23)C1 (configuration not stated)

>  <CLASS>
1.0

$$$$
>  <MOLECULE>
Cc1cc(Nc2ncnc3ccc(-c4ccc(CNCCS(C)(=O)=O)o4)cc23)ccc1Oc1ccn2ncnc2c1

>  <CLASS>
1.0

$$$$
>  <MOLECULE>
C=CC(=O)Nc1cccc(Oc2nc(Nc3ccc(N4CCN(C)CC4)cc3OC)ncc2Cl)c1

>  <CLASS>
1.0

$$$$
>  <MOLECULE>
Cc1ccc(C(=O)Nc2ccc(CN3CCN(C)CC3)c(C(F)(F)F)c2)cc1C#Cc1cnc2cccnn12

>  <CLASS>
1.0

$$$$
>  <MOLECULE>
CNC(=O)c1cc(Oc2ccc(NC(=O)Nc3cc(C(C)(C)C)nn3-c3ccc4ncccc4c3)c(F)c2)ccn1

>  <CLASS>
1.0

$$$$
>  <MOLECULE>
O=C(NCCCNc1nc(Nc2cccc(NC(=O)N3CCCC3)c2)ncc1I)c1cccs1

>  <CLASS>
1.0

$$$$
>  <MOLECULE>
O=C(C=Cc1cccnc1)NCCCCC1CCN(C(=O)c2ccccc2)CC1

>  <CLASS>
1.0

$$$$
>  <MOLECULE>
O=C(O)Cn1nnc(-c2cc(N3CCC(Oc4cc(F)ccc4Br)CC3)no2)n1

>  <CLASS>
0.0

$$$$
>  <MOLECULE>
Cn1c2ccccc2c2c3c(c4c5ccccc5n(CCC#N)c4c21)CNC3=O

>  <CLASS>
1.0

$$$$

====

# PROTOCOL DESCRIPTION: qHTS Assay for Identification of Small Molecule Antagonists for NFkB Signaling Pathway. (AID 624479);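 further: pathway stimulated with TNF alpha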
# STUDY CONDITIONS: NFkB pathway reporter cell assay, antagonist mode; series mostly up to 38.3 µM
Active and inactive are the calls of the source. Calls come from the whole dose curve.
Classes used: active, inactive

>  <COMPOUND>
CC(C)(C)c1cnc(CSc2cnc(NC(=O)C3CCNCC3)s2)o1

>  <CLASS>
active

$$$$
>  <COMPOUND>
COc1ccc(CC2SC(=O)NC2=O)cc1C(=O)NCc1ccc(C(F)(F)F)cc1 (stereo unspecified)

>  <CLASS>
inactive

$$$$
>  <COMPOUND>
CN1CCN(c2ccc3nc(-c4c(N)c5c(F)cccc5[nH]c4=O)[nH]c3c2)CC1

>  <CLASS>
active

$$$$
>  <COMPOUND>
CC(C)(C)c1cc(NC(=O)Nc2ccc(-c3cn4c(n3)sc3cc(OCCN5CCOCC5)ccc34)cc2)no1

>  <CLASS>
active

$$$$
>  <COMPOUND>
COc1cc2nccc(Oc3ccc(NC(=O)C4(C(=O)Nc5ccc(F)cc5)CC4)cc3)c2cc1OC

>  <CLASS>
active

$$$$
>  <COMPOUND>
Cn1c2cc(S(C)=O)sc2c2cnn(Cc3cccc(N)c3)c(=O)c21 (stereo unspecified)

>  <CLASS>
active

$$$$
>  <COMPOUND>
CC(C)CC(=O)Nc1n[nH]c2c1CN(C(=O)C1CCN(C)CC1)C2(C)C

>  <CLASS>
active

$$$$
>  <COMPOUND>
Nc1nc(Nc2ccc(S(N)(=O)=O)cc2)nn1C(=O)c1c(F)cccc1F

>  <CLASS>
active

$$$$
>  <COMPOUND>
Cc1[nH]nc2ccc(-c3cncc(OC[C@@H](N)Cc4ccccc4)c3)cc12

>  <CLASS>
active

$$$$
>  <COMPOUND>
Nc1cc(C(F)(F)F)c(-c2cc(N3CCOCC3)nc(N3CCOCC3)n2)cn1

>  <CLASS>
inactive

$$$$
>  <COMPOUND>
N#Cc1c(O)c2c(-c3ccc(-c4ccccc4O)cc3)csc2[nH]c1=O

>  <CLASS>
inactive

$$$$

====

# Tested on: MCC-13
# PROTOCOL DESCRIPTION: qHTS assay to identify novel small-molecules to repurpose for Merkel cell carcinoma treatment (AID 1296009); further: nearly all actives have a fitted effect of over 60% in size; further: potency means the concentration at half of the fitted maximal effect
# STUDY CONDITIONS: MCC and control cell lines, CellTiter-Glo viability, 72 h; series mostly up to 46 µM
Records with an inconclusive call do not appear. Activity calls are given as the source filed them. Calls follow the shape of the dose curve; as a rule, active = well fitted inhibition curve with a large enough effect; inconclusive = small, poorly fitted or top-dose-only effect; inactive = flat fitted curve, though single readings scatter.

>  <COMPOUND>
C[C@]12CC[C@H](O)CC1=CCC1C2CC[C@]2(C)C(n3cnc4ccccc43)=CCC12 (stereo partly drawn)

>  <Potency>
inactive

$$$$
>  <COMPOUND>
Cn1cc(-c2ccncc2)c(-c2ccc(OCc3ccc4ccccc4n3)cc2)n1

>  <Potency>
inactive

$$$$
>  <COMPOUND>
C[C@@H]1COC(Nc2ccc3ncnc(Nc4ccc(OCc5nccs5)c(Cl)c4)c3c2)=N1

>  <Potency>
inactive

$$$$
>  <COMPOUND>
C=CC(=O)Nc1cc2c(Nc3ccc(F)c(Cl)c3)ncnc2cc1OCCCN1CCOCC1

>  <Potency>
inactive

$$$$
>  <COMPOUND>
COc1ccc(-c2cc3c(C)nc(N)nc3n(C3CCC(OCCO)CC3)c2=O)cn1 (stereo not drawn)

>  <Potency>
1870 nM (active)

$$$$
>  <COMPOUND>
Cc1ccc2nc(NC(=O)CSc3nc4c(c(=O)n3-c3ccccc3)SCC4)sc2c1

>  <Potency>
inactive

$$$$
>  <COMPOUND>
COCCn1c2c([n+](Cc3cnccn3)c1C)C(=O)c1ccccc1C2=O

>  <Potency>
590 nM (active)

$$$$
>  <COMPOUND>
CN1CCN(c2cc(C(=O)Nc3ccc4c(c3)-c3c(c(C(N)=O)nn3-c3ccc(F)cc3)CC4)c(Cl)cn2)CC1

>  <Potency>
inactive

$$$$
>  <COMPOUND>
Cc1[nH]c2ccccc2c1CCNCc1ccc(C=CC(=O)NO)cc1

>  <Potency>
833 nM (active)

$$$$
>  <COMPOUND>
Nc1cc(C(F)(F)F)c(-c2cc(N3CCOCC3)nc(N3CCOCC3)n2)cn1

>  <Potency>
2960 nM (active)

$$$$
>  <COMPOUND>
COc1cccc(Nc2c(C(N)=O)cnc3c(C)cc(S(=O)(=O)c4cccc(C(=O)N(C)C)c4)cc23)c1

>  <Potency>
inactive

$$$$
>  <COMPOUND>
O=c1[nH]c(=O)n(C2CCCO2)cc1F (stereo not drawn)

>  <Potency>
inactive

$$$$
>  <COMPOUND>
CC=C1NC(=O)[C@H]2CSSCCC=C[C@H](CC(=O)N[C@H](C(C)C)C(=O)N2)OC(=O)[C@H](C(C)C)NC1=O

>  <Potency>
235 nM (active)

$$$$
>  <COMPOUND>
Nc1nc(-c2nn(Cc3ccccc3F)c3ncccc23)nc(N)c1N1CCOCC1

>  <Potency>
inactive

$$$$
>  <COMPOUND>
O=C(Nc1cn[nH]c1-c1nc2ccc(CN3CCOCC3)cc2[nH]1)NC1CC1

>  <Potency>
935 nM (active)

$$$$
>  <COMPOUND>
CCOc1cc2ncc(C#N)c(Nc3ccc(F)c(Cl)c3)c2cc1NC(=O)C=CCN(C)C

>  <Potency>
23500 nM (active)

$$$$
>  <COMPOUND>
O=c1[nH]nc(Sc2ncc([N+](=O)[O-])s2)n1-c1ccc2c(c1)OCCO2

>  <Potency>
11800 nM (active)

$$$$
>  <COMPOUND>
CCCCCCCCCC(=O)N[C@@H](Cc1c[nH]c2ccccc12)C(=O)N[C@H](CC(N)=O)C(=O)N[C@@H](CC(=O)O)C(=O)N[C@@H]1C(=O)NCC(=O)N[C@@H](CCCN)C(=O)N[C@@H](CC(=O)O)C(=O)N[C@H](C)C(=O)N[C@@H](CC(=O)O)C(=O)NCC(=O)N[C@H](CO)C(=O)N[C@@H]([C@@H](C)CC(=O)O)C(=O)N[C@@H](CC(=O)c2ccccc2N)C(=O)O[C@@H]1C

>  <Potency>
inactive

$$$$

// data source = PubChem BioAssay (NCATS)
